Recorded values, source ChEMBL document CHEMBL1130880.

# System: KATO III stomach cancer cell line
# test: Compound was evaluated for in vitro antiproliferative activity against KATO-III human gastric cancer cell line
# Assay type: functional, cell-based
readout type: pIC50
Please keep in mind that pIC50 is minus log10 of the molar concentration; only the number is needed.

See these solved cases before continuing.
COCOCCC1(O)C(=O)OCc2c1cc1n(c2=O)Cc2c-1nc1cc3c(cc1c2CCl)OCCO3 (stereo not given) :: 5.84
CCC1(O)C(=O)OCc2c1cc1n(c2=O)Cc2c-1nc1cc3c(cc1c2CCl)OCCO3 (stereo not given) :: 5.21
COCOCCC1(O)C(=O)OCc2c1cc1n(c2=O)Cc2c-1nc1ccccc1c2CCNC(C)C (stereo not given) :: 5.49

Ask: What does the data say about its pIC50? Entry: CCC1(O)C(=O)OCc2c1cc1n(c2=O)Cc2c-1nc1ccccc1c2CCNC(C)C (stereo not given)
Result: 6.21

Ask: What does the data say about its pIC50? Entry: CCOCOCCC1(O)C(=O)OCc2c1cc1n(c2=O)Cc2c-1nc1ccccc1c2CCNC(C)C (stereo not given)
Result: 5.38

Ask: What does the data say about its pIC50? Entry: CC(C)NCCc1c2c(nc3ccccc13)-c1cc3c(c(=O)n1C2)COC(=O)C3(O)CCO (stereo not given)
Result: 5.36

Ask: What does the data say about its pIC50? Entry: COCOCCC1(O)C(=O)OCc2c1cc1n(c2=O)Cc2cc3ccccc3nc2-1 (stereo not given)
Result: 6.49

Ask: What does the data say about its pIC50? Entry: CCC1(O)C(=O)OCc2c1cc1n(c2=O)Cc2cc3ccccc3nc2-1 (stereo not given)
Result: 6.35

Ask: What does the data say about its pIC50? Entry: O=C1OCc2c(cc3n(c2=O)Cc2c-3nc3cc4c(cc3c2CCl)OCCO4)C1(O)CCO (stereo not given)
Result: 6.87

Ask: What does the data say about its pIC50? Entry: CCOCOCCC1(O)C(=O)OCc2c1cc1n(c2=O)Cc2c-1nc1cc3c(cc1c2CCl)OCCO3 (stereo not given)
Result: 5.23
